Values were extracted from patent US10646469B2.

The following compounds are listed with their measured melting point values.
# include the unit after the value

// below: answered compounds
COc1cc(NC(C(=O)c2c[nH]c3cc(OC)c(OC(F)(F)F)cc23)c2ccc(F)cc2OC)cc(OCCO)c1 (racemic) [Compound 6]: 178 °C
COc1cc(NC(C(=O)c2c[nH]c3c(C)cc(OC(F)(F)F)cc23)c2ccc(Cl)cc2OC)cc(OCCO)c1 (racemic) [Compound 16]: 105 °C
COc1cc(NC(C(=O)c2c[nH]c3cc(OC)c(C(F)(F)F)cc23)c2ccc(F)cc2OC)cc(OCCO)c1 (racemic) [Compound 2]: 174 °C

Here is another compound to look at.
INPUT: Return the recorded melting point value; entry: COc1cc(NC(C(=O)c2c[nH]c3ccc(C(F)(F)F)cc23)c2ccc(F)cc2OC)cc(OCCO)c1 (racemic) [Compound 1]
OUTPUT: 132 °C
